The reader will find reported Percent Effect values listed item by item below.
- targetSystem: Tyrosyl-tRNA synthetase, putative (Trypanosoma cruzi (strain CL Brener))
- Sequence (whole entry): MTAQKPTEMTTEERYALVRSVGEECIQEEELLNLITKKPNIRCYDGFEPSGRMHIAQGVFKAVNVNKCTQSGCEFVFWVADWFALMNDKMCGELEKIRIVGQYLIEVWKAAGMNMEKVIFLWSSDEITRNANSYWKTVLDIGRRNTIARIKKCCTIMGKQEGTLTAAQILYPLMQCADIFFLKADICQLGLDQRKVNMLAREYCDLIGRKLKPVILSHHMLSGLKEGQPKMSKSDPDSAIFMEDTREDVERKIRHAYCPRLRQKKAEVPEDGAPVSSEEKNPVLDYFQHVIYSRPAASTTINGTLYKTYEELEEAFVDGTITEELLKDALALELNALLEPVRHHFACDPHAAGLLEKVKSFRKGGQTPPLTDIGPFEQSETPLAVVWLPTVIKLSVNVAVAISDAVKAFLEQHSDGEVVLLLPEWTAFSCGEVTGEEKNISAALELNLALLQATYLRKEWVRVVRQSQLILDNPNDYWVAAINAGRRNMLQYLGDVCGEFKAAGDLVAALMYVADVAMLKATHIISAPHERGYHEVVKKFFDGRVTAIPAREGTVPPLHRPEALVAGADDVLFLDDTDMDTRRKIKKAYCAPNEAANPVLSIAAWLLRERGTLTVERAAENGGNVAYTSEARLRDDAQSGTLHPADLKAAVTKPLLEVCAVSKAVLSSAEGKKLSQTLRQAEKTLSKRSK
- experiment: Trypanosoma cruzi tyrosyl tRNA synthetase (TcYRS) SOP
- Format: functional
- Set-up: scale not given: direction of the effect not stated beside the values
- assayContext: 30 µM

[
  {
    "compound": "Cc1nc(CN(C)C2CCN(CCCOc3ccccc3)C2)no1 (centres undefined)",
    "Percent Effect": "21.2%"
  },
  {
    "compound": "COc1cccc(COCC(=O)N2CCCC(n3ccnc3C)C2)c1 (centres undefined)",
    "Percent Effect": "1.21%"
  },
  {
    "compound": "CCc1nc(C)c(C(=O)NCCN2CCC(C)CC2)s1",
    "Percent Effect": "11.8%"
  },
  {
    "compound": "O=C(NCCOc1ccc(Cl)cc1)N1CCS(=O)(=O)CC1",
    "Percent Effect": "10.8%"
  },
  {
    "compound": "CN(C)CC1CN(Cc2coc(-c3cccs3)n2)CCO1 (centres undefined)",
    "Percent Effect": "5.13%"
  },
  {
    "compound": "CC(C)(C)n1ncc2c1NC(=O)CC2c1ccc(OCC(N)=O)cc1 (centres undefined)",
    "Percent Effect": "14.6%"
  },
  {
    "compound": "COc1cc(CNCc2ccc(NC(=O)NC(C)C)cc2)cc(OC)c1",
    "Percent Effect": "30.6%"
  },
  {
    "compound": "CC(=O)N1CCC(c2cc(C(F)(F)F)n3ccnc3n2)CC1",
    "Percent Effect": "-25%"
  },
  {
    "compound": "CNC(=O)[C@@H]1C[C@H]2CN(Cc3ccco3)C[C@H]2N1C",
    "Percent Effect": "12.5%"
  },
  {
    "compound": "Cc1cnn(C2CCCN(C(=O)c3sccc3-n3cnnn3)C2)c1 (centres undefined)",
    "Percent Effect": "10.8%"
  },
  {
    "compound": "CC(=O)N1N=C(c2ccccc2)OC1C(=O)NCCc1cccc(Cl)c1 (centres undefined)",
    "Percent Effect": "10%"
  },
  {
    "compound": "Cc1cccc(CN2CCc3nnc(CO)n3CC2)n1",
    "Percent Effect": "15%"
  },
  {
    "compound": "Cc1nc(C)n(CC2CCCN2Cc2nc3ccccc3n2C)n1 (centres undefined)",
    "Percent Effect": "12.8%"
  },
  {
    "compound": "O=C(c1ccc(F)cc1)N1CCC2(CCCN2CC2CC2)CC1",
    "Percent Effect": "0%"
  },
  {
    "compound": "Cc1cc(C2CCCN(C(=O)c3c(C)nn4cccnc34)C2)n[nH]1 (centres undefined)",
    "Percent Effect": "5.13%"
  },
  {
    "compound": "CC(C)c1cc(NC(=O)CN2CCNC(=O)C2)on1",
    "Percent Effect": "21.2%"
  },
  {
    "compound": "COCCc1ncc(CN2CCC(Oc3ccccc3C)CC2)cn1",
    "Percent Effect": "20%"
  },
  {
    "compound": "Cc1noc(C)c1CN1CCN(Cc2nccn2C)CC1",
    "Percent Effect": "7.69%"
  },
  {
    "compound": "O=C(O)c1csc(S(=O)(=O)Nc2cccc(OC(F)F)c2)c1",
    "Percent Effect": "1.21%"
  },
  {
    "compound": "Cc1cccnc1CNCC1(O)CCCN(CC2CCCCC2)C1=O (centres undefined)",
    "Percent Effect": "17.1%"
  },
  {
    "compound": "c1cnc(OCc2nnc3n2CCN(CC2CC2)C3)nc1",
    "Percent Effect": "7.69%"
  },
  {
    "compound": "Cc1ccoc1-c1nnc(CN2CCn3c(nnc3C3CC3)C2)o1",
    "Percent Effect": "-10.3%"
  },
  {
    "compound": "Cn1nc2c(cc1=O)CN(Cc1nnc(-c3ccco3)o1)CC2",
    "Percent Effect": "22.9%"
  },
  {
    "compound": "O=C(Cn1c(=O)nc2n1C(=O)N(c1ccccc1)C2)Nc1ccccc1",
    "Percent Effect": "14.6%"
  }
]

The reported measurements were obtained from ChEMBL document CHEMBL3988442.
